Values compiled from patent US10208081B2.

Listing of recorded pEC50 by entry.
# target desc: human FXR (NR1H4) (Homo sapiens (Human))
# Sequence (Q96RI1 whole entry, the tested form may be a part): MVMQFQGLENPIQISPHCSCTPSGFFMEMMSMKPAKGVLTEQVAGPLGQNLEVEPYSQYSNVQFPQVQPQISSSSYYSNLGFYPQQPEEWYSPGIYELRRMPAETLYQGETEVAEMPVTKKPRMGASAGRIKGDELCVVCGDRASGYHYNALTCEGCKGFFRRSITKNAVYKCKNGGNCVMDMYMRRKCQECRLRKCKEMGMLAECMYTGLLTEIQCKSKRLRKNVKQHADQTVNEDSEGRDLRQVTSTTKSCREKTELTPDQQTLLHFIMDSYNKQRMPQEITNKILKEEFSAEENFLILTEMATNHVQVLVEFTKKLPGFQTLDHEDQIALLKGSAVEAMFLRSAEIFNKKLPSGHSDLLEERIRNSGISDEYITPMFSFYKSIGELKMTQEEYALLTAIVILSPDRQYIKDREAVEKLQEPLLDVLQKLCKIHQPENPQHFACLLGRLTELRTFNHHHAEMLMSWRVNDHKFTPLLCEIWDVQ
# assay procedure: Human FXR (NR1H4) Assay (Gal4 promoter driven luciferase reporter, Indigo Bioscience kit IB00601)
# Assay type: cell-based
# assay setup: potency ranges
# Description: Assays Human FXR (NR1H4) Assay Determination of a ligand mediated Gal4 promoter driven transactivation quantify ligand binding mediated activation of FXR. […] The principle application of this reporter assay system is to quantify functional activity of human FXR. […] Luminescence intensity of the reaction is quantified using a plate-reading luminometer, Envision. […] Cells were incubated for additional 22 hours before luciferase activities were measured. […] Read time may be 0.5 second (500 mSec) per well.
pEC50: −log10 of the molar value.

# compound, pEC50
records = [
    ("CC[C@H]1[C@@H](O)[C@@H]2[C@H](CC[C@]3(C)[C@@H]([C@H](C)CCNC(=O)NS(=O)(=O)N4CC5CC5C4)CC[C@@H]23)[C@@]2(C)CC[C@@H](O)C[C@@H]12 (stereo partly shown)", "> 7.00"),
    ("CC[C@H]1[C@@H](O)[C@@H]2[C@H](CC[C@]3(C)[C@@H]([C@H](C)CCCNS(=O)(=O)c4ccccc4)CC[C@@H]23)[C@@]2(C)CC[C@@H](O)C[C@@H]12", "6.00 to 7.00"),
    ("CC[C@H]1[C@@H](O)[C@@H]2[C@H](CC[C@]3(C)[C@@H]([C@H](C)CCNC(=O)NS(=O)(=O)c4ccc(C5(C(F)(F)F)CC5)cc4)CC[C@@H]23)[C@@]2(C)CC[C@@H](O)C[C@@H]12", "> 7.00"),
]

Next compound, pEC50 to be filled in.
Inquiry: For the compound shown here, CC[C@H]1[C@@H](O)[C@@H]2[C@H](CC[C@]3(C)[C@@H]([C@H](C)CCNC(=O)NS(=O)(=O)c4ccc(-c5ccno5)cc4C)CC[C@@H]23)[C@@]2(C)CC[C@@H](O)C[C@@H]12 , give the reported pEC50.
Reply text: 6.00 to 7.00

----------
Measured EC50 by item
# target desc: human FXR (NR1H4) (Homo sapiens (Human))
# assay procedure: Human FXR (NR1H4) Assay (Gal4 promoter driven luciferase reporter, Indigo Bioscience kit IB00601)
# Format: cell-based
# assay setup: potency ranges

Guide cases for EC50, answers given:
# compound, metric name, value
measured = [
    ("CC[C@H]1[C@@H](O)[C@@H]2[C@H](CC[C@]3(C)[C@@H]([C@H](C)CCCNC(=O)NS(=O)(=O)C4CC4)CC[C@@H]23)[C@@]2(C)CC[C@@H](O)C[C@@H]12 [Example 20]", "EC50", "0.1 to 1 µM"),
    ("CC[C@H]1[C@@H](O)[C@@H]2[C@H](CC[C@]3(C)[C@@H]([C@H](C)CCCNC(=O)NS(=O)(=O)c4ccc5ccccc5c4)CC[C@@H]23)[C@@]2(C)CC[C@@H](O)C[C@@H]12 [Example 19]", "EC50", "0.1 to 1 µM"),
]

// moving on: another record for EC50
Inquiry: Please report the recorded EC50 for CC[C@H]1[C@@H](O)[C@@H]2[C@H](CC[C@]3(C)[C@@H]([C@H](C)CCNC(=O)NS(=O)(=O)c4ccc(OC)cc4)CC[C@@H]23)[C@@]2(C)CC[C@@H](O)C[C@@H]12 [Example 15] .
Reply text: < 0.1 µM
